Here, each record is paired with measured Enzyme Activity Endpoint Assay (purified): Fab'2 data.
- Assayed target: pooled human IgG
Parameter: Enzyme Activity Endpoint Assay (purified): Fab'2 (ng/µL)

| Protein | Recorded value |
| --- | --- |
| PRT-266 (protein) MVTSVWTKGVTPPTDFIYGEDVLHAPYKAGQGWYDITKTFNGKDDLLCGAATAGNMLHWWFDQNKEQIENYLKKHPEKQKINFNGEQMFDVKEAIDTKDSQLDSKLFEYFKEKAFPNLSTKHLGVFPDHVIDMFINGYRLSLLNHGPTPVKRGSKDPRGGIFDAVFTRGDQSKLLTNRHDLKNKTLKEISDLIKQELTEGKALGISHTYANVRINHVINLWGADFDAEGNLEAIYVTDSDSNASIGMKKYFVGVNSSGKVAISAKEIEEDNIGAQVLGLFTLSTGQDIWNQTN | 698 |
| PRT-289 (protein) MVTSVWTKGVTPPADFTQGEDVFHAPYVANQGWYDITKTFNGKDDLLCGAATAGNMLHWWFDQNKEYIEAYLKKHPEKQKIMFGDQELLDVRKAINTKGSQKNSELFNYFRDKAFPNLSARRLGVMPDLVLDMFINGYYLNVTKTQTTDVNRTYQEKDKRGGIFDAVFTRGDQSKLLTSRHDFKEKGLKEISDLIKQELTEGKALGLSHTYANVGINHVINLWGADFDSDGNLKAIYVTDSDSNASIGMKKYFVGVNSSGKVAISAKEIKEDNIGAQVLGLFTLSTGQDIWNQTN | 581 |
